Values were extracted from patent EP4458977A1.

test protocol: TEM of peptide assemblies (fibril formation / assembly)
Format: physicochemical
test parameters: 1 mg/mL in PBS
Where no end group is shown, it is not given here. The star is where a group is joined. Palmitoyl = CCCCCCCCCCCCCCCC(=O)*

- substance: "C16-disulfide-CVVVAAAKKK-NH2 (not fully specified (residue 1); printed as C16-disulfide-CVVVAAAKKK-NH2) [Pat2]"
  TEM morphology (in words): "fibrillar morphologies"
- substance: "C16-ester-SVVVAAAKKK-NH2 (S(Palmitoyl)VVVAAAKKK-NH2; N-terminus assumed; SMILES CCCCCCCCCCCCCCCC(=O)OC[C@H](N)C(=O)N[C@H](C(=O)N[C@H](C(=O)N[C@H](C(=O)N[C@@H](C)C(=O)N[C@@H](C)C(=O)N[C@@H](C)C(=O)N[C@@H](CCCCN)C(=O)N[C@@H](CCCCN)C(=O)N[C@@H](CCCCN)C(N)=O)C(C)C)C(C)C)C(C)C) [Pat1]"
  TEM morphology (in words): "fibrillar morphologies"
- substance: "NFYLQVNKINK-NH2 [Pat46]"
  TEM morphology (in words): "fibrillar morphologies"

* * *

Test system: HIV-1
test parameters: relative to virus only
Where a SMILES comes first, the peptide text is derived from it. The star is where a group is joined. Fmoc = O=C(OCC1c2ccccc2-c2ccccc21)*; Palmitoyl = CCCCCCCCCCCCCCCC(=O)*; Lauroyl = CCCCCCCCCCCC(=O)*
outcome measure: Infectivity enhancing N fold at 1.3 µM (N fold)
Express it in N fold; write the number only.

Infectivity enhancing N fold at 1.3 µM lookup needed for CCCCCCCCCCCCCCCC(=O)NCC(=O)NCC(=O)NCC(=O)N[C@@H](CO)C(=O)N[C@@H](CO)C(=O)N[C@@H](CCCCN)C(=O)N[C@@H](CCCCN)C(=O)N[C@@H](CCCCN)C(N)=O [Pat28] (Palmitoyl-GGGSSKKK-NH2) , thanks.
2

Infectivity enhancing N fold at 1.3 µM lookup needed for CC(C)[C@H](NC(=O)OCC1c2ccccc2-c2ccccc21)C(=O)N[C@H](C(=O)N[C@H](C(=O)N[C@@H](C)C(=O)N[C@@H](C)C(=O)N[C@@H](C)C(=O)N[C@@H](CCCCN)C(=O)N[C@@H](CCCCN)C(=O)N[C@@H](CCCCN)C(N)=O)C(C)C)C(C)C [Pat12] (Fmoc-VVVAAAKKK-NH2) , thanks.
5

Infectivity enhancing N fold at 1.3 µM lookup needed for CCCCCCCCCCCCCCCC(=O)N[C@@H](C)C(=O)N[C@@H](CCC(N)=O)C(=O)N[C@@H](C)C(=O)N[C@@H](CCCCN)C(=O)N[C@@H](C)C(=O)N[C@@H](CCCCN)C(N)=O [Pat16, C16-AQAKAK-NH2] (Palmitoyl-AQAKAK-NH2) , thanks.
4

Infectivity enhancing N fold at 1.3 µM lookup needed for CCCCCCCCCCCCCCCC(=O)N[C@H](C(=O)N[C@H](C(=O)N[C@@H](C)C(=O)N[C@@H](C)C(=O)N[C@@H](Cc1c[nH]cn1)C(=O)N[C@@H](Cc1c[nH]cn1)C(=O)N[C@@H](Cc1c[nH]cn1)C(N)=O)C(C)C)C(C)C [Pat24, C16-VVAAHHH-NH2] (Palmitoyl-VVAAHHH-NH2) , thanks.
2

Infectivity enhancing N fold at 1.3 µM lookup needed for CCCCCCCCCCCC(=O)N[C@H](C(=O)N[C@H](C(=O)N[C@H](C(=O)N[C@@H](C)C(=O)N[C@@H](C)C(=O)N[C@@H](C)C(=O)N[C@@H](CCCCN)C(=O)N[C@@H](CCCCN)C(=O)N[C@@H](CCCCN)C(N)=O)C(C)C)C(C)C)C(C)C [Pat7] (Lauroyl-VVVAAAKKK-NH2) , thanks.
6

Infectivity enhancing N fold at 1.3 µM lookup needed for CCCCCCCCCCCCCCCC(=O)N[C@@H](CC(N)=O)C(=O)N[C@@H](Cc1ccccc1)C(=O)N[C@@H](Cc1ccc(O)cc1)C(=O)N[C@@H](CC(C)C)C(=O)N[C@@H](CCC(N)=O)C(=O)N[C@H](C(=O)N[C@@H](CC(N)=O)C(=O)N[C@@H](CCCCN)C(=O)N[C@H](C(=O)N[C@@H](CC(N)=O)C(=O)N[C@@H](CCCCN)C(N)=O)[C@@H](C)CC)C(C)C [Pat27] (Palmitoyl-NFYLQVNKINK-NH2) , thanks.
5

Infectivity enhancing N fold at 1.3 µM lookup needed for CCCCCCCCCCCCCCCC(=O)N[C@@H](CCCCN)C(=O)NCC(=O)N[C@H](C(=O)N1CCC[C@H]1C(=O)NCC(=O)N[C@H](C(=O)NCC(=O)N[C@@H](CCCCN)C(N)=O)C(C)C)C(C)C [Pat25] (Palmitoyl-KGVPGVGK-NH2) , thanks.
1

* * *

test protocol: Thioflavin T (ThT) fluorescence assay
Type: physicochemical
test parameters: relative to PBS control
Where a SMILES comes first, the peptide text is derived from it. The star is where a group is joined. Fmoc = O=C(OCC1c2ccccc2-c2ccccc21)*; Nonanoyl = CCCCCCCCC(=O)*
outcome measure: N-fold ThT-fluorescence
Reply with the value as a number alone.

N-fold ThT-fluorescence lookup needed for CC(C)[C@H](NC(=O)OCC1c2ccccc2-c2ccccc21)C(=O)N[C@H](C(=O)N[C@H](C(=O)N[C@@H](C)C(=O)N[C@@H](C)C(=O)N[C@@H](C)C(=O)N[C@@H](CCCCN)C(=O)N[C@@H](CCCCN)C(=O)N[C@@H](CCCCN)C(N)=O)C(C)C)C(C)C [Pat12] (Fmoc-VVVAAAKKK-NH2) , thanks.
269.9

N-fold ThT-fluorescence lookup needed for CCCCCCCCC(=O)N[C@H](C(=O)N[C@H](C(=O)N[C@H](C(=O)N[C@@H](C)C(=O)N[C@@H](C)C(=O)N[C@@H](C)C(=O)N[C@@H](CCCCN)C(=O)N[C@@H](CCCCN)C(=O)N[C@@H](CCCCN)C(N)=O)C(C)C)C(C)C)C(C)C [Pat8] (Nonanoyl-VVVAAAKKK-NH2) , thanks.
37.1

* * *

Tested on: HIV-1;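 also: TZM-bl reporter cells exposed to HIV-1 with peptide fibrils, infection read out as β-galactosidase luminescence, compared with virus alone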
test parameters: relative to virus only
Where a SMILES comes first, the peptide text is derived from it. [ ]: non-standard residue; d: D form. The star is where a group is joined. X1 = CC/C=C\C/C=C\C/C=C\C/C=C\C/C=C\CCCC(=O)*; X2 = CC/C=C\C/C=C\C/C=C\CCCCCCCC(=O)*; Palmitoyl = CCCCCCCCCCCCCCCC(=O)*; Nonanoyl = CCCCCCCCC(=O)*
Consider the following compounds; for each one, report its Infectivity enhancing N fold at 1.3 µM.
Express it in N fold; write the number only.

Infectivity enhancing N fold at 1.3 µM lookup needed for CC/C=C\C/C=C\C/C=C\CCCCCCCC(=O)N[C@H](C(=O)N[C@H](C(=O)N[C@H](C(=O)N[C@@H](C)C(=O)N[C@@H](C)C(=O)N[C@@H](C)C(=O)N[C@@H](CCCCN)C(=O)N[C@@H](CCCCN)C(=O)N[C@@H](CCCCN)C(N)=O)C(C)C)C(C)C)C(C)C [Pat9] (X2-VVVAAAKKK-NH2) , thanks.
1

Infectivity enhancing N fold at 1.3 µM lookup needed for CCCCCCCCCCCCCCCC(=O)N[C@H](C(=O)N[C@H](C(=O)N[C@H](C(=O)N[C@@H](C)C(=O)N[C@@H](C)C(=O)N[C@@H](C)C(=O)N[C@@H](CCCCN)C(=O)N[C@@H](CCCCN)C(=O)N[C@@H](CCCCN)C(N)=O)C(C)C)C(C)C)C(C)C [PA1] (Palmitoyl-VVVAAAKKK-NH2) , thanks.
10

Infectivity enhancing N fold at 1.3 µM lookup needed for CCCCCCCCCCCCCCCC(=O)N[C@@H](C)C(=O)N[C@@H](CC(C)C)C(=O)N[C@@H](C)C(=O)N[C@@H](C)C(=O)NCC(=O)N[C@@H](CCCCN)C(=O)N[C@@H](CCCCN)C(N)=O [Pat20, C16-ALAAGKK-NH2] (Palmitoyl-ALAAGKK-NH2) , thanks.
5

Infectivity enhancing N fold at 1.3 µM lookup needed for CCCCCCCCCCCCCCCC(=O)N[C@@H](CCCCN)C(=O)N[C@@H](Cc1ccc(O)cc1)C(=O)N[C@H](C(=O)N[C@@H](Cc1c[nH]cn1)C(=O)N[C@@H](CCC(N)=O)C(=O)N[C@@H](CC(N)=O)C(=O)N[C@@H](Cc1ccc(O)cc1)C(=O)N[C@H](C(=O)N[C@@H](CCCCN)C(=O)N[C@@H](C)C(=O)N[C@@H](CC(C)C)C(=O)N[C@@H](C)C(=O)NCC(=O)N[C@@H](CCCCN)C(=O)N[C@@H](CC(C)C)C(=O)N[C@H](C(N)=O)C(C)C)[C@@H](C)O)[C@@H](C)CC [Pat26] (Palmitoyl-KYIHQNYTKALAGKLV-NH2) , thanks.
5

Infectivity enhancing N fold at 1.3 µM lookup needed for CCCCCCCCCCCCCCCC(=O)N[C@@H](C(=O)N[C@@H](C(=O)N[C@@H](C(=O)N[C@H](C)C(=O)N[C@H](C)C(=O)N[C@H](C)C(=O)N[C@H](CCCCN)C(=O)N[C@H](CCCCN)C(=O)N[C@H](CCCCN)C(N)=O)C(C)C)C(C)C)C(C)C [Pat14, C16-vvvaaakkk-NH2] (Palmitoyl-[dV][dV][dV][dA][dA][dA][dK][dK][dK]-NH2) , thanks.
7

Infectivity enhancing N fold at 1.3 µM lookup needed for CC/C=C\C/C=C\C/C=C\C/C=C\C/C=C\CCCC(=O)N[C@H](C(=O)N[C@H](C(=O)N[C@H](C(=O)N[C@@H](C)C(=O)N[C@@H](C)C(=O)N[C@@H](C)C(=O)N[C@@H](CCCCN)C(=O)N[C@@H](CCCCN)C(=O)N[C@@H](CCCCN)C(N)=O)C(C)C)C(C)C)C(C)C [Pat10] (X1-VVVAAAKKK-NH2) , thanks.
12

Infectivity enhancing N fold at 1.3 µM lookup needed for CCCCCCCCCCCCCCCC(=O)N[C@H](C(=O)N[C@H](C(=O)N[C@@H](CCC(N)=O)C(=O)N[C@@H](CCCCN)C(=O)N[C@H](C(=O)N[C@@H](CCCCN)C(N)=O)[C@@H](C)CC)[C@@H](C)CC)[C@@H](C)CC [Pat15, C16-IIQKIK-NH2] (Palmitoyl-IIQKIK-NH2) , thanks.
4

Infectivity enhancing N fold at 1.3 µM lookup needed for CCCCCCCCC(=O)N[C@H](C(=O)N[C@H](C(=O)N[C@H](C(=O)N[C@@H](C)C(=O)N[C@@H](C)C(=O)N[C@@H](C)C(=O)N[C@@H](CCCCN)C(=O)N[C@@H](CCCCN)C(=O)N[C@@H](CCCCN)C(N)=O)C(C)C)C(C)C)C(C)C [Pat8] (Nonanoyl-VVVAAAKKK-NH2) , thanks.
2

Infectivity enhancing N fold at 1.3 µM lookup needed for CCCCCCCCCCCCCCCC(=O)N[C@@H](Cc1c[nH]c2ccccc12)C(=O)N[C@@H](CCC(=O)O)C(=O)N[C@@H](C)C(=O)N[C@@H](CC(C)C)C(=O)N[C@@H](CCCCN)C(=O)N[C@@H](CCCCN)C(N)=O [Pat17, C16-WEALKK-NH2] (Palmitoyl-WEALKK-NH2) , thanks.
1

Infectivity enhancing N fold at 1.3 µM lookup needed for CCCCCCCCCCCCCCCC(=O)N[C@@H](CC(C)C)C(=O)N[C@@H](CC(C)C)C(=O)N[C@@H](CC(C)C)C(=O)N[C@@H](CCCCN)C(=O)N[C@@H](CCCCN)C(N)=O [Pat23, C16-LLLKK-NH2] (Palmitoyl-LLLKK-NH2) , thanks.
3

Infectivity enhancing N fold at 1.3 µM lookup needed for CCCCCCCCCCCCCCCC(=O)N[C@@H](CCCCN)C(=O)N[C@H](C(=O)N[C@H](C(=O)N[C@@H](CO)C(=O)N[C@@H](Cc1ccccc1)C(=O)N[C@@H](CCCCN)C(N)=O)[C@@H](C)CC)[C@@H](C)CC [Pat32, C16-KIISFK-NH2] (Palmitoyl-KIISFK-NH2) , thanks.
2
